Cited source for all entries: ChEMBL document CHEMBL1201862

Test system: K562
PROTOCOL DESCRIPTION: NCI tumour cell line growth inhibition, 48 h
The source made the active and inactive calls. No stated cut-off is given here; in the data, active = GI50 up to about 1.1 µM and inactive = higher.
Log the outcome using a class from 1 = active, 0 = inactive

Solved cases below.
* CCCC(=O)Nc1cc(/C=C/C(=O)N2CC(CCl)c3ccc(N)cc32)n(C)c1 (stereo not given) | 1
* COc1ccc2nc3c4c(nccc4c2c1)-c1ncccc1C3=O | 1
* CC1=NNC(=O)C1C1C=C(c2c[nH]c3ccccc23)OC1=O (stereo not given) | 0
* CC(C)CCCCCCCCCCCCC(=O)NCC(=O)NC1C(C)OC(Nc2[nH]cnc3ncnc2-3)C(O)C1O (stereo not given) | 1
* COC1(OC)c2no[n+]([O-])c2CCC1O (stereo not given) | 0
* COc1c(O)cc2c3c(ccnc13)NC=C2 | 0

So what was the verdict on `COc1ccc(S(=O)(=O)c2nnc(S(=O)(=O)Cc3ccccc3)s2)cc1` in this test? 0

Entry Cc1cc2c(cc1C)NC1=C(O)C(c3c[nH]c4ccc(COc5ccccc5)cc34)OC1=N2 (stereo not given) : call = ? 0

What classification did `[O-][n+]1c(-c2ccccc2)c2nc3ccccc3nc2c2ccccc21` end up with in this test? 0

Dear all, I need the recorded test outcome for `Cc1nc2ccccc2c(=O)n1/N=C(\N=N\c1ccc(Cl)cc1)c1cccc(-c2ccco2)c1` , thank you. 0
